Listing of pIC50 toward Poly [ADP-ribose] polymerase 1 (Homo sapiens, UniProt P09874), each taken from a published source.
pIC50: −log10 of the molar value.
# pIC50 >= 8 gives 1, anything below gives 0

For this molecule, is measured pIC50 8 or higher? O=C1NOCc2c(-c3ccc(C4CCCN4)cc3)[nH]c3cc(F)cc1c23 (single isomer, unassigned)
1

Has CNC(=O)c1ccc(O[C@@H]2CCN(Cc3cnc4c(c3)[nH]c(=O)c3ccoc34)C2)cn1 a recorded pIC50 greater than or equal to 8?
1

In plain terms: is recorded pIC50 at least 8 for Cc1cccc2c(=O)[nH]c3c(c12)COC(C1CCN(C(=O)OC(C)(C)C)CC1)C3 (racemic) ?
0

hey, is pIC50 for this one >= 8? O=c1[nH]nc2c3c(cc(F)cc13)NC(C1(F)CC1)C2c1ccc(Cl)cc1F (centres unmarked)
1

Determine whether this molecule has pIC50 no lower than 8: N#Cc1cccc(O[C@H]2CC[C@H](NC(=O)CCCc3nc4ccccc4c(=O)[nH]3)CC2)c1
0
